SYSTEM_UNDER_TEST: Carboxypeptidase A1 (Homo sapiens)
Sequence (P15085 whole entry): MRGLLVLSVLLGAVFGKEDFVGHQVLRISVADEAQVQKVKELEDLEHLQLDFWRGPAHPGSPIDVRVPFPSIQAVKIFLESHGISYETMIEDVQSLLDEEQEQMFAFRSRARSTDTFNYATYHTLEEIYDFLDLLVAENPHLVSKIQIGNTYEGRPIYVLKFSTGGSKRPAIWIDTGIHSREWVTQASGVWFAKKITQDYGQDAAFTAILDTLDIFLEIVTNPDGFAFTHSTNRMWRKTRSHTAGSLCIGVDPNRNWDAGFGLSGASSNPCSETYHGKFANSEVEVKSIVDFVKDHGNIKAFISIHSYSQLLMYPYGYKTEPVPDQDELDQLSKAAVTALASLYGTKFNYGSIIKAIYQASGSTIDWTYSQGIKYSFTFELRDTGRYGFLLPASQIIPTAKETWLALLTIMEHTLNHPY
PROPERTY_LABEL: IC50

>>> result("CC(C)[C@@H]1NC(=O)[C@H](NC(=O)N[C@@H](CCCCN)C(=O)O)CCCCNC(=O)[C@H](Cc2ccccc2)NC(=O)[C@H](C)N(C)C(=O)[C@H](CCc2ccc(O)cc2)NC1=O")
"> 100 µM"

====

SYSTEM_UNDER_TEST: Prothrombin (Homo sapiens)
METHOD_SUMMARY: Inhibition of factor2a (unknown origin)
pIC50: −log10 of the molar value. *1 amine or outer side, *2 acyl side, *3 side chain or, on linkers, in order; H or OH if unused. Where a SMILES comes first, the peptide text is derived from it. Bridges are numbered along the chain shown (N, C = ends). [ ]: non-standard residue; d: D form. hTyr = N[C@@H](CCc1ccc(O)cc1)C(=O)O; NMeA = CN[C@@H](C)C(=O)O; CO = O=C([*:1])[*:2]
PROPERTY_LABEL: pIC50

>>> numeric_value("CC[C@H](C)[C@@H]1NC(=O)[C@H](NC(=O)N[C@@H](CCCNC(=N)N)C(=O)O)CCCCNC(=O)[C@H](Cc2ccccc2)NC(=O)[C@H](C)N(C)C(=O)[C@H](CCc2ccc(O)cc2)NC1=O [ANABAENOPEPTIN F] ({Arg-CO}-[dK]I[hTyr][NMeA]F; lactam 1-C)")
6.46
>>> numeric_value("CC(C)[C@@H]1NC(=O)[C@H](NC(=O)N[C@@H](CCCCN)C(=O)O)CCCCNC(=O)[C@H](Cc2ccccc2)NC(=O)[C@H](C)N(C)C(=O)[C@H](CCc2ccc(O)cc2)NC1=O")
5.22
>>> numeric_value("CC(C)[C@@H]1NC(=O)[C@H](NC(=O)N[C@@H](CCCNC(=N)N)C(=O)O)CCCCNC(=O)[C@H](Cc2ccccc2)NC(=O)[C@H](C)N(C)C(=O)[C@H](CCc2ccc(O)cc2)NC1=O [ANABAENOPEPTIN B] ({Arg-CO}-[dK]V[hTyr][NMeA]F; lactam 1-C)")
5.80

====

*1 amine or outer side, *2 acyl side, *3 side chain or, on linkers, in order; H or OH if unused. Where a SMILES comes first, the peptide text is derived from it. Bridges are numbered along the chain shown (N, C = ends). [ ]: non-standard residue; d: D form. hTyr = N[C@@H](CCc1ccc(O)cc1)C(=O)O; NMeA = CN[C@@H](C)C(=O)O; CO = O=C([*:1])[*:2]
Let's go through some IC50 measurements on Coagulation factor X (Homo sapiens, UniProt P00742) together.
Sequence (P00742 41-179 limits assumed): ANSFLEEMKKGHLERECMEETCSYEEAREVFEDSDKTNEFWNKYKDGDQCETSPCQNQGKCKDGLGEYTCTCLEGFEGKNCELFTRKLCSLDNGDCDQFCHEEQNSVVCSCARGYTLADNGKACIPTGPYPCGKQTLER
Sequence (P00742 235-488 limits assumed): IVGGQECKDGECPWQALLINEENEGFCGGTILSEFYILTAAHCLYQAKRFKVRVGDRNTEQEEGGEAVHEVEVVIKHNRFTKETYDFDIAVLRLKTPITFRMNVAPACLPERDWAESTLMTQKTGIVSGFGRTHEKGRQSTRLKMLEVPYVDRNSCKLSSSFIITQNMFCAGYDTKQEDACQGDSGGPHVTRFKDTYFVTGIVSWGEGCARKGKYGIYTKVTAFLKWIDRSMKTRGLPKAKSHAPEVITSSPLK
PROPERTY_LABEL: IC50

>>> result("CC(C)[C@@H]1NC(=O)[C@H](NC(=O)N[C@@H](CCCNC(=N)N)C(=O)O)CCCCNC(=O)[C@H](Cc2ccccc2)NC(=O)[C@H](C)N(C)C(=O)[C@H](CCc2ccc(O)cc2)NC1=O [ANABAENOPEPTIN B] ({Arg-CO}-[dK]V[hTyr][NMeA]F; lactam 1-C)")
"> 100 µM"
>>> result("CC[C@H](C)[C@@H]1NC(=O)[C@H](NC(=O)N[C@@H](CCCNC(=N)N)C(=O)O)CCCCNC(=O)[C@H](Cc2ccccc2)NC(=O)[C@H](C)N(C)C(=O)[C@H](CCc2ccc(O)cc2)NC1=O [ANABAENOPEPTIN F] ({Arg-CO}-[dK]I[hTyr][NMeA]F; lactam 1-C)")
"38 µM"
>>> result("CC(C)[C@@H]1NC(=O)[C@H](NC(=O)N[C@@H](CCCCN)C(=O)O)CCCCNC(=O)[C@H](Cc2ccccc2)NC(=O)[C@H](C)N(C)C(=O)[C@H](CCc2ccc(O)cc2)NC1=O")
"> 100 µM"

====

Here's what we have: IC50 numbers for Carboxypeptidase B2 (Homo sapiens).
PROPERTY_LABEL: IC50

>>> result("CC12CCC(C(NC(=O)[C@@H](CC3CCCCC3)NC(=O)N[C@@H](Cc3ccc(N)nc3)C(=O)O)C1)C2(C)C (some centres undefined)")
"1 nM"
>>> result("CC12CCC(C(NC(=O)[C@@H](CC3CCCCC3)NC(=O)N[C@@H](Cc3ccc(N)nc3)C(N)=O)C1)C2(C)C (some centres undefined)")
"570 nM"
>>> result("CC(C)CCNC(=O)[C@@H](CCCCNC(=O)OCc1ccccc1)NC(=O)N[C@@H](CCCCN)C(=O)O")
"1400 nM"
>>> result("CC(C)C[C@@H](NC(=O)N[C@@H](CCCCN)C(=O)O)C(=O)NC1CC2(C)CCC1C2(C)C (single isomer, unassigned; (+))")
"57 nM"
